# Test system: Mycosphaerella graminicola; Anamorph: Septoria tritici; Bayer Code SEPTTR
# Assay summary: Leaf blotch of wheat, foliar fungicide treatment, one day protectant (1DP) or three day curative (3DC)
# Format: in vivo, Septoria tritici on wheat plants (variety Yuma)
# Condition info: Zymoseptoria tritici, 72 h, three day curative (3DC), 25 ppm, percent control rating, read-out: SEPTTR 3DC 25 ppm
Parameter measured: pest or weed control at 25 ppm

                            compound_smiles                             system_tested  obs_value
0  Cc1ccc(COc2ncc(F)c(NS(=O)(=O)c3ccccc3)n2)cc1  Mycosphaerella graminicola; Anamorph: Septoria tritici; Bayer Code SEPTTR   0 to 25%

Attention now turns to another entry.
The reported value for COc1ncc(F)c(N/N=C(\C)c2cc3ccccc3o2)n1 in terms of pest or weed control at 25 ppm is 0 to 25%

====

# Tested on: Mycosphaerella graminicola; Anamorph: Septoria tritici; Bayer Code SEPTTR
# Assay summary: Leaf blotch of wheat, foliar fungicide treatment, one day protectant (1DP) or three day curative (3DC)
# Format: in vivo, Septoria tritici on wheat plants (variety Yuma)
# Condition info: Zymoseptoria tritici, 24 h, one day protectant (1DP), 100 ppm, rating of percent disease control, read-out: SEPTTR 1DP 100 ppm
# Lookup of reported pest or weed control at 100 ppm keyed by entry

For orientation, consider the following solved cases.
>>> df
                                   compound               parameter_measured   obs_value
0        CN(C)/C=N/c1nc(OCc2cccc(F)c2)ncc1F  pest or weed control at 100 ppm  76 to 100%
1      Cc1ccc(COc2ncc(F)c(NNC3CCCCC3)n2)cc1  pest or weed control at 100 ppm  76 to 100%
2     O=C(OCNc1nc(OCc2ccc(F)cc2)ncc1F)C1CC1  pest or weed control at 100 ppm  76 to 100%
3           Nc1nc(OC(=O)c2snc(Cl)c2Cl)ncc1F  pest or weed control at 100 ppm   51 to 75%
4  CN(C)/C=N/c1nc(OC(=O)c2c(Cl)cccc2Cl)ncc1F  pest or weed control at 100 ppm  76 to 100%
5       CC[Si](CC)(CC)Nc1nc(OCc2cccs2)ncc1F  pest or weed control at 100 ppm  76 to 100%
6               Nc1nc(OCCc2ccc(Cl)cc2)ncc1F  pest or weed control at 100 ppm  76 to 100%
7       CNc1nc(OCc2cc(OC)c(OC)c(OC)c2)ncc1F  pest or weed control at 100 ppm    0 to 25%
8  CC(Oc1ncc(F)c(N)n1)c1c(Cl)ccc(Cl)c1Cl (stereo not drawn)  pest or weed control at 100 ppm  76 to 100%
9                NNc1nc(OCc2ccc(F)cc2)ncc1F  pest or weed control at 100 ppm  76 to 100%

The reported value for Cc1cc(Cl)ccc1Oc1ncc(F)c(N)n1 in terms of pest or weed control at 100 ppm is 0 to 25%

The reported value for CCOC(=O)Nc1nc(OCc2ccc(C)cc2)ncc1F in terms of pest or weed control at 100 ppm is 76 to 100%

====

# Lookup of reported pest or weed control at 100 ppm keyed by entry
# System: Mycosphaerella graminicola; Anamorph: Septoria tritici; Bayer Code SEPTTR
# Assay summary: Leaf blotch of wheat, foliar fungicide treatment, one day protectant (1DP) or three day curative (3DC)
# Type: in vivo, Septoria tritici on wheat plants (variety Yuma)
# Condition info: Zymoseptoria tritici, 24 h, one day protectant (1DP), 100 ppm, rating of percent disease control, read-out: SEPTTR 1DP 100 ppm

>>> df
                             compound                             system_tested  obs_value
0  CCCNC(=O)Nc1nc(OCc2ccc(F)cc2)ncc1F  Mycosphaerella graminicola; Anamorph: Septoria tritici; Bayer Code SEPTTR  51 to 75%

The reported value for COc1ccccc1Oc1ncc(F)c(N)n1 in terms of pest or weed control at 100 ppm is 76 to 100%

The reported value for COc1cc(Cl)c(COc2ncc(F)c(N)n2)cc1OC in terms of pest or weed control at 100 ppm is 76 to 100%

The reported value for CC(C)C(=O)Oc1ncc(F)c(/N=C/N(C)C)n1 in terms of pest or weed control at 100 ppm is 76 to 100%

src = patent US9204653B2
